Where these numbers come from: ChEMBL document CHEMBL5338819

Recorded Activity values for a group of molecules are listed next.
Biological target: Retinoid isomerohydrolase (Mus musculus)
Test: In vivo inhibition of RPE65 in BALB/cJ mouse eye by measuring retinyl ester level per eye at 10 mg/kg,ip administrated by HPLC analysis
Type: functional, organism-based
property: Activity (pmol)

[[record]]
molecule = "CC(CN)Cc1ccc(F)c(OCC2CCCCC2)c1 (stereo not given)"
property = "Activity"
scaleunit = "pmol"
quantitativeresult = 260

[[record]]
molecule = "CNCCC(O)c1cccc(OCC2CCCCC2)c1 (stereo not given)"
property = "Activity"
scaleunit = "pmol"
quantitativeresult = 297

[[record]]
molecule = "NCCc1cccc(OCC2CCCCC2)c1"
property = "Activity"
scaleunit = "pmol"
quantitativeresult = 254

[[record]]
molecule = "CC(CCN)c1cccc(OCC2CCCCC2)c1 (stereo not given)"
property = "Activity"
scaleunit = "pmol"
quantitativeresult = 292

[[record]]
molecule = "CC(CN)Cc1cccc(OCC2CCCCC2)c1 (stereo not given)"
property = "Activity"
scaleunit = "pmol"
quantitativeresult = 256


====

Assay: Drug concentration in C57BL/6J mouse serum assessed as emixustat concentration at 10 mg/kg,ip administrated and measured after 1 hr by HPLC-MS analysis
Format: ADME, organism-based
Details: in vivo, read-out: Ct
property: concentration (nM)

[[record]]
molecule = "CNCCC(O)c1cccc(OCC2CCCCC2)c1 (stereo unspecified)"
quantitativeresult = 52.3


====

Assay: Drug concentration in mouse aorta measured after 4 hr by HPLC analysis
Assay type: ADME, tissue-based
Settings: read-out: Drug uptake
property: concentration at 4 h (µM)

[[record]]
molecule = "CNCCC(O)c1cccc(OCC2CCCCC2)c1 (stereo unspecified)"
quantitativeresult = 89.1


====

Test: Drug concentration in mouse aorta measured after 1 hr by HPLC analysis
Format: ADME, tissue-based
Details: read-out: Drug uptake
property: concentration at 1 h

[[record]]
compound = "CNCCC(O)c1cccc(OCC2CCCCC2)c1 (stereo unspecified)"
result = "101 µM"


====

Target: Retinoid isomerohydrolase (Mus musculus)
Sequence (whole entry): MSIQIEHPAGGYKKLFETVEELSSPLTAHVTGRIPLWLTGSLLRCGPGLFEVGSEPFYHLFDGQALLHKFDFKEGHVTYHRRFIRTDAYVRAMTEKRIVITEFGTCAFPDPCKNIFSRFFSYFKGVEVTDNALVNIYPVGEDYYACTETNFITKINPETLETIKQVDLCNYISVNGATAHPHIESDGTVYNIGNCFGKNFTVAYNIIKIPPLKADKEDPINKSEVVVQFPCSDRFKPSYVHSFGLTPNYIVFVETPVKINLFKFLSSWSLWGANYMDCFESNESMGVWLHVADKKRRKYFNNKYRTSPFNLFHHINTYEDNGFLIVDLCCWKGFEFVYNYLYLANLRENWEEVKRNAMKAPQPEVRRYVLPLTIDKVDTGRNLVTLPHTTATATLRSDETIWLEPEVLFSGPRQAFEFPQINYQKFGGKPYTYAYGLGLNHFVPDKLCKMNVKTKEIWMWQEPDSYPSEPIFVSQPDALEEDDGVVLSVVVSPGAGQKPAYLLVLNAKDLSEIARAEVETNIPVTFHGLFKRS
Assay: In vivo inhibition of RPE65 in BALB/cJ mouse eye by measuring 11-cis-retinal level per eye at 10 mg/kg,ip administrated by HPLC analysis
Format: functional, organism-based
Recorded Activity values for a group of compounds are listed next.
property: Activity

[[record]]
compound = "CC(CCN)c1cccc(OCC2CCCCC2)c1 (stereo not given)"
result = "25.6 pmol"

[[record]]
compound = "CC(CN)Cc1cccc(OCC2CCCCC2)c1 (stereo not given)"
result = "17.4 pmol"

[[record]]
compound = "CC(CN)Cc1ccc(F)c(OCC2CCCCC2)c1 (stereo not given)"
result = "23.5 pmol"

[[record]]
compound = "CNCCC(O)c1cccc(OCC2CCCCC2)c1 (stereo not given)"
result = "13.8 pmol"

[[record]]
compound = "NCCc1cccc(OCC2CCCCC2)c1"
result = "16 pmol"

